- experimental system: T1, AMHRII receptor expressed on cells (cov434-AMHRII, Asc 1, META 2815) (human, UniProt Q16671 18-573)
- T1 sequence (looked up): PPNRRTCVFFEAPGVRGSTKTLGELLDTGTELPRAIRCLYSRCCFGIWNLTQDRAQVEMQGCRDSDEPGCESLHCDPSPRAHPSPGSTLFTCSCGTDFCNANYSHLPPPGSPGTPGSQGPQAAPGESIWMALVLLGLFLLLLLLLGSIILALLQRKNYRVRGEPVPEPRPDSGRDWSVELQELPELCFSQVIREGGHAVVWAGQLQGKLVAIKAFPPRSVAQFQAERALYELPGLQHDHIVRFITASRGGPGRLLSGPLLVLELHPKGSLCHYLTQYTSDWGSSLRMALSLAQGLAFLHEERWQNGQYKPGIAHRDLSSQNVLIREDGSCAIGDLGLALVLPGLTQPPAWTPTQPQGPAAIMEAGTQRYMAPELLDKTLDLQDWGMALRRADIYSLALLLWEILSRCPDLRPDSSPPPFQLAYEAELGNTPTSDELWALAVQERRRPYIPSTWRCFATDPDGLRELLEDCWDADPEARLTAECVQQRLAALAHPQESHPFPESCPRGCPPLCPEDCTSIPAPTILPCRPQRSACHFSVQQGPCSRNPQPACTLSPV
- assay protocol: cell-based or functional assay
recorded endpoint: % of lysis of ASC1 cells (ADCC with NK cells, LDH release) at 0.001 ng/ml antibody (%)

| binder | unit name | observed value |
| --- | --- | --- |
| unmutated humanized 12G4 monoclonal antibody (antibody, human IgG1, kappa, V domains shown, Variable regions without leader joined to the constant regions; also called huLFB112; 632 07 107 Anti AMHRII hum 1st) VH: QVQLVQSGAEVKKPGASVKVSCKASGYTFTSYHIHWVRQAPGQRLEWMGWIYPGDDSTKYSQKFQGRVTITRDTSASTAYMELSSLRSEDTAVYYCTRGDRFAYWGQGTLVTVSS VL: DIQMTQSPSTLSASVGDRVTITCRASSSVRYIAWYQQKPGKAPKLLIYSTSSLESGVPSRFSGSGSGTEFTLTISSLQPDDFATYYCLQWSSYPWTFGGGTKVEIKR | % | 0 |
